Numbers sourced from patent US20180155344A1.

target: human TPH1 (Homo sapiens, UniProt P17752); assay: biochemical
Reported values of pIC50 for individual entries
// scale note: pIC50 = -log10(conc_M); give the bare number

CS(=O)(=O)Nc1ccc(OCC(=O)N2CCc3nc4cc(Cl)ccn4c3C2c2ccc(Cl)cc2F)c(Cl)n1 (centres unmarked) ... 8.10

Q: Which pIC50 is listed for CN(C)C(=O)c1csc(C2c3c(nc4cccnn34)CCN2C(=O)COc2ccc(N3CCOCC3)nc2Cl)c1 (centres unmarked) ?
A: 7.37

Q: Entry CCc1nc(C)ccc1OCC(=O)N1CCc2nc3ccccn3c2C1c1ncc(C2CC2)cc1F (centres unmarked) has what pIC50?
A: 6.84

Q: I have this compound here, CCc1c(OCC(=O)N2CCc3nc4cc(C(F)(F)F)ccn4c3C2c2ccc(C3CC3)cc2F)ccc(C)[n+]1[O-] (centres unmarked) , and I need its recorded pIC50.
A: 7.07

Q: Suppose we examine the compound CCc1cc(C)c(C(=O)NC)cc1OCC(=O)N1CCc2nc3ccccn3c2C1c1ccc(OC)c(OC)c1 (centres unmarked) ; what pIC50 value has been reported?
A: 6.85

Q: Bench note: what pIC50 did O=C(COc1ccc(CN2CCOCC2)cc1Cl)N1CCc2nc3cc(C(F)(F)F)ccn3c2C1c1ccnc(Cl)c1 (centres unmarked) show?
A: 6.53

Q: Field request: pIC50 | item: COc1ccc(C2c3c(nc4cc(C)ccn34)CCN2C(=O)COc2ccc3ccccc3c2)cc1OC (centres unmarked)
A: 8.00

Q: pIC50 for O=C(COc1ccc(CN2CCOCC2)cc1Cl)N1CCc2nc3cc(C(F)(F)F)ccn3c2C1c1ccc(C(F)(F)F)cc1 (centres unmarked) ?
A: 7.11

Q: Field request: pIC50 | item: Cn1nc(OCC(=O)N2CCc3nc4cc(C(F)(F)F)ccn4c3C2c2ccccc2F)c(Cl)c1C(F)(F)F (centres unmarked)
A: 6.47

Q: Name the recorded pIC50 for COc1cc(F)c(C2c3c(nc4cc(C(F)(F)F)ccn34)CCN2C(=O)COc2ccc3c(c2)CN(C)CC3)cc1OC (centres unmarked) .
A: 7.89

Q: Query: pIC50; subject: Cc1cc(Cl)ccc1OCC(=O)N1CCc2nc3ccccn3c2C1c1ccc(Cl)cc1F (centres unmarked)
A: 7.74

Q: Any idea what pIC50 was measured for COc1ccc(C2c3c(nc4cc(C(F)(F)F)ccn34)CCN2C(=O)COc2ccc3ccccc3c2)cc1OC (centres unmarked) ?
A: 7.82

Q: Which pIC50 is reported for this compound? COc1ccc(C2c3c(nc4cc(Cl)ccn34)CCN2C(=O)COc2ccc(CN3CCOCC3)cc2Cl)cc1OC[C@H](O)CO (some centres unmarked)
A: 7.72

Q: # get_value(readout='pIC50', item= CN(C)C(=O)c1ccc(OC2(C(=O)N3CCc4nc5ccccn5c4C3c3ccc(Cl)cc3F)CC2)c(Cl)n1 (centres unmarked) )
A: 6.49

Q: What value of pIC50 has been recorded for this entry: COc1cc(F)c(C2c3c(nc4cc(C(F)(F)F)ccn34)CCN2C(=O)COc2ccc3c(c2)CN(C(=O)CO)CC3)cc1OC (centres unmarked)
A: 8.40

Q: Form field: reported pIC50 of COc1ccc([C@@H]2c3c(nc4cc(Cl)ccn34)CCN2C(=O)COc2ccc(N3CCOCC3)cc2Cl)c(F)c1
A: 7.92

Q: What measured pIC50 goes with O=C(COc1ccc2ccccc2c1)N1CCc2nc3cc(C(F)(F)F)ccn3c2C1c1nc2ccccc2s1 (centres unmarked) ?
A: 7.12

Q: Item COc1ccc(C2c3c(nc4cc(C(F)(F)F)ccn34)CCN2C(=O)COc2ccc3ccccc3c2)cc1 (centres unmarked) has what recorded pIC50?
A: 7.36

Q: I would be grateful if you could share the reported pIC50 for O=C(COc1ccc(N2CCOCC2)cc1Cl)N1CCc2nc3cc(Cl)ccn3c2[C@H]1c1cccnc1F .
A: 6.91

Q: Fill in the blank: the reported pIC50 of Cc1nc(C)c(C2c3c(nc4cc(C(F)(F)F)ccn34)CCN2C(=O)COc2ccc(-c3ncco3)nc2Cl)s1 (centres unmarked) is ____.
A: 7.66

###

target: UniProt P17752; test: biochemical
Listing: pIC50 of selected compounds
Please report pIC50 as the negative decimal logarithm of the molar concentration, giving only the number.

CCc1cc(N2CCOCC2)ccc1OCC(=O)N1CCc2nc3cc(C(F)(F)F)ccn3c2C1c1ccc(OC)c(OC)c1 (stereo not drawn) [Example 3.1.33] ... 7.92
COc1ccc(C2c3c(nc4cc(C(F)(F)F)ccn34)CCN2C(=O)COc2ccc3c(c2C)CCNC3)c(F)c1 (stereo not drawn) [Example 3.3.5] ... 6.66
O=C(COc1ccc2ccccc2c1)N1CCc2nc3cc(C(F)(F)F)ccn3c2C1c1cccnc1 (stereo not drawn) [Example 3.36.1] ... 6.68
COc1ccc(C2c3c(nc4cc(C(F)(F)F)ccn34)CCN2C(=O)COc2cnc3c(c2)ncn3C)cc1OC (stereo not drawn) [Example 3.1.23] ... 6.42
CS(=O)(=O)Nc1ccc(OCC(=O)N2CCc3nc4cc(C(F)(F)F)ccn4c3C2c2ccc(Cl)cc2F)c(Cl)n1 (stereo not drawn) [Example 3.4.7] ... 8.30

Q: Which pIC50 value belongs to CS(=O)(=O)Nc1ccc(OCC(=O)N2CCc3nc4ccccn4c3C2c2ccc(C#N)cc2F)c(Cl)n1 (stereo not drawn) [Example 1.20.1] ?
A: 7.01

Q: Look at this compound and give its reported pIC50. COc1ccc(C2c3c(nc4cc(C(F)(F)F)ccn34)CCN2C(=O)COc2ccc3c(c2C)CCN(C(C)=O)C3)c(F)c1 (stereo not drawn) [Example 3.3.6]
A: 7.96

Q: Which pIC50 value belongs to O=C(COc1ccc2ccccc2c1)N1CCc2nc3cc(C(F)(F)F)ccn3c2C1c1ccc(Cl)nc1 (stereo not drawn) [Example 3.37.2] ?
A: 7.24

Q: Item O=C(COc1cccnc1C(F)(F)F)N1CCc2nc3ccccn3c2C1c1ccc(C2CC2)cc1F (stereo not drawn) [Example 1.5.6] has what recorded pIC50?
A: 7.89

Q: Can you look up the measured pIC50 of Cc1csc(C2c3c(nc4cc(C(F)(F)F)ccn34)CCN2C(=O)COc2ccc3ccccc3c2)n1 (stereo not drawn) [Example 3.42.1] for me?
A: 6.59

Q: Endpoint output: pIC50 of CS(=O)(=O)Nc1ccc(OCC(=O)N2CCc3nc4cc(F)ccn4c3C2c2ccc(Cl)cc2F)c(Cl)n1 (stereo not drawn) [Example 14.1.1] . Value?
A: 7.13

Q: Which pIC50 value is on record for O=C(COc1ccc(CN2CCOCC2)cc1Cl)N1CCc2nc3cc(C(F)(F)F)ccn3c2C1c1ccccc1F (stereo not drawn) [Example 3.35.2] ?
A: 7.80

###

Target: UniProtKB P17752
Sequence (P17752 1-444): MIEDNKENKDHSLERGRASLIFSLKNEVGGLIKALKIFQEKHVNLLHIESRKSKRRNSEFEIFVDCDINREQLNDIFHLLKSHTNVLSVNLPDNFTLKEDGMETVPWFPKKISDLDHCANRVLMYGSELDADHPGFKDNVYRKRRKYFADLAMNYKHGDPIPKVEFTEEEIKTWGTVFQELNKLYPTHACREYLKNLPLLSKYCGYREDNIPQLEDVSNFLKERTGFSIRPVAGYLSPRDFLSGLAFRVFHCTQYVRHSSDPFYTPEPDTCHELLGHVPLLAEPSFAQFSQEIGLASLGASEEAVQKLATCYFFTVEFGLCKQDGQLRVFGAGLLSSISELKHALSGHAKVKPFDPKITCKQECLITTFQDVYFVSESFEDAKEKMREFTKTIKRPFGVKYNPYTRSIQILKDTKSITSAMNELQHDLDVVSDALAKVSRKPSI
Test: biochemical
recorded_endpoint: IC50 (nM)
// note: answer is a bare numeric in nM

O=C(COc1ccc2ccccc2c1)N1CCc2nc3cc(C(F)(F)F)ccn3c2C1c1cc2cccnc2s1 (centres unmarked) [Example 3.49.1] ... 47
Cc1ccc(C2c3c(nc4cc(Cl)ccn34)CCN2C(=O)COc2ccc(NS(C)(=O)=O)nc2Cl)c(F)c1 (centres unmarked) [Example 2.15.1] ... 51
CN(C)C(=O)c1ccc(OC(C)(C)C(=O)N2CCc3nc4ccccn4c3C2c2ccc(Cl)cc2F)c(Cl)n1 (centres unmarked) [Example 1.4.17] ... 949

# context switch: different compound, same IC50
Q: Looking for the measured IC50 of O=C(COc1ccc(N2CCOCC2)nc1Cl)N1CCc2nc3ccccn3c2C1c1ccc(Cl)nc1F (centres unmarked) [Example 1.11.1] , can you help?
A: 7

###

Examples of compounds with documented IC50 follow.
target: human TPH1 (Homo sapiens); test: biochemical
Respond with the figure and its unit, in that order.

Consider the reported IC50 for these compounds:
COc1ccc(C2c3c(nc4cc(C(F)(F)F)ccn34)CCN2C(=O)COc2ccc(CN3CCOCC3)cc2Cl)c(F)c1 (stereo not drawn) [Example 3.3.2] ... 0.007 µM
COc1cc(C2c3c(nc4cc(C(F)(F)F)ccn34)CCN2C(=O)COc2ccc3ccccc3c2)ccc1OC(F)F (stereo not drawn) [Example 3.14.1] ... 0.106 µM

Would you kindly look at the next entry?
Q: Which IC50 reading was recorded for the compound CCOC(=O)c1cc(OCC(=O)N2CCc3nc4ccccn4c3C2c2ccc(OC)c(OC)c2)c(CC)cc1C (stereo not drawn) [Example 1.1.10] ?
A: 0.092 µM
